# System: Ebolavirus
# Measurement Notes: Antiviral activity against Ebola virus infected in African green monkey Vero E6 cells assessed as reduction in viral titer infected for 1 hr followed by compound addition and measured after 5 days by immunofocus assay
# Format: functional, organism-based
# Stated Conditions: Orthoebolavirus, Vero C1008
Measurement Name: pIC50
Lab note — pIC50 values are minus log10 of concentrations in M.

Request: Given the entry NC(=O)c1nc(F)cnc1O , report its measured pIC50.
Result: 4.17

###

# Tested on: Ebolavirus
# Measurement Notes: Antiviral activity against Ebola virus infected in […] cells assessed as reduction in viral infection incubated for 10 days by crystal violet staining based method
# Format: functional, organism-based
# Stated Conditions: Orthoebolavirus, 240 h
Measurement Name: EC50 (nM)
Report the value in nM with no unit label.

Request: Bench note: what EC50 did C[C@]12CC3CC(C(=O)N[C@H]4CC[C@H](N)CC4)(C1)C[C@@](c1ccccc1)(C3)C2 show?
Result: 240

###

# System: Ebolavirus
# Measurement Notes: Antiviral activity against Ebola virus makona
# Format: functional, organism-based
# Stated Conditions: Orthoebolavirus
Measurement Name: pEC50
Note: pEC50 values are expressed as the negative base-10 logarithm of concentration in M.

Request: Could you tell me which pEC50 is on file for COC(=O)c1ccc(COc2ccccc2CN2CCN(C(=O)CNC(=O)CC34CC5CC(CC(C5)C3)C4)CC2)cc1 ?
Result: 6.80
